Listing of recorded Papp B→A at 10 µM by entry.
# protocol.summary: Apparent permeability across basolateral to apical side in human Caco2 cells at 10 uM after 15 to 90 mins by LC-ESI-MS/MS analysis
# Assay type: ADME, cell-based
# condition.notes: Caco-2
Quick note: give the figure in ×10⁻⁶ cm/s, leave out the unit.

Check out these entries, answers already filled in.
# sample.smiles, Papp B→A at 10 µM [×10⁻⁶ cm/s]
records = [
    ("C[C@]12CC[C@H]3[C@@H](CCC4=CC(=O)CC[C@@]43C)[C@@H]1CC[C@@H]2O", 58.9),
    ("CNC(=O)C(=O)NCCCC/C=C\\CCCCCCCOCC(=O)O", 15.8),
    ("CNC(=O)C(=O)NCCCC/C=C\\CCCCCCCCCC(=O)O", 2.3),
    ("CC[C@H]1OC(=O)[C@H](C)[C@@H](O[C@H]2C[C@@](C)(OC)[C@@H](O)[C@H](C)O2)[C@H](C)[C@@H](O[C@@H]2O[C@H](C)C[C@H](N(C)C)[C@H]2O)[C@](C)(O)C[C@@H](C)C(=O)[C@H](C)[C@@H](O)[C@]1(C)O", 10.4),
]

What Papp B→A at 10 µM value was documented for this compound, CNC(=O)C(=O)NCCCC/C=C\CCCCCCCCCc1nnn[nH]1 ?
8

###

# protocol.summary: Stability in human plasma assessed as compound remaining at 10 uM measured up to 60 mins by LC-ESI-MS/MS analysis
# Type: ADME, cell-free
# condition.notes: read-out: Stability
measured.property: remaining at 1 h, 10 µM (%)
Quick note: give the figure in %, leave out the unit.

What remaining at 1 h, 10 µM value was documented for this molecule, CC(C)[N+](C)(CCOC(=O)C1c2ccccc2Oc2ccccc21)C(C)C [PROPANTHELINE BROMIDE] ?
2.6

###

# protocol.summary: Tmax in Sprague-Dawley (RjHan:SD) rat at 3 mg/kg, po administered via gavage by LC-MS analysis
# Format: ADME, organism-based
# condition.notes: in vivo
measured.property: Tmax (h)
Quick note: give the figure in h, leave out the unit.

Check out these entries, answers already filled in.
# sample.smiles, experimental.value
data = [
    ("CNC(=O)C(=O)NCCCC/C=C\\CCCCCCCCCc1nnn[nH]1", 2),
    ("CNC(=O)C(=O)NCCCC/C=C\\CCCCCCCOCC(=O)O", 1.6),
]

Let us move to another entry and its Tmax.
What Tmax value was documented for this compound, CNC(=O)C(=O)NCCCC/C=C\CCCCCCCCCC(=O)O ?
1.6

###

# protocol.summary: Efflux ratio of apparent permeability across basolateral to apical side over apical to basolateral side in human Caco2 cells at 10 uM after 15 to 90 mins by LC-ESI-MS/MS analysis
# Type: ADME, cell-based
# condition.notes: Caco-2
Listing of recorded efflux ratio at 10 µM by entry.

Check out these entries, answers already filled in.
# sample.smiles, measured.property, experimental.value
measured = [
    ("CNC(=O)C(=O)NCCCC/C=C\\CCCCCCCCCC(=O)O", "efflux ratio at 10 µM", 0.4),
    ("CNC(=O)C(=O)NCCCC/C=C\\CCCCCCCOCC(=O)O", "efflux ratio at 10 µM", 0.6),
]

Let us move to another entry and its efflux ratio at 10 µM.
What efflux ratio at 10 µM value was documented for this compound, CNC(=O)C(=O)NCCCC/C=C\CCCCCCCCCc1nnn[nH]1 ?
0.8

###

Listing of recorded inhibition by entry.
# assayed.system: Bifunctional epoxide hydrolase 2 (Homo sapiens)
# protocol.summary: Inhibition of N-terminal His-tagged recombinant human soluble epoxide hydrolase (2 to 555 residues) expressed in Sf21 insect cells at 10 uM using as 14,15-EET as substrate after 10 mins by reversed-phase HPLC assay relative to control
Quick note: give the figure in %, leave out the unit.

# compound, inhibition, %
rows = [
    ("CNC(=O)C(=O)NCCCC/C=C\\CCCCCCCCCS(=O)(=O)[O-].[Na+]", 0),
]

Let us move to another entry and its inhibition.
What inhibition value was documented for this compound, CCNC(=O)NCCCC/C=C\CCCCCCCCCC(=O)NCC(=O)[O-].[Na+] ?
19.2

###

# protocol.summary: Half life in human hepatocytes at 1 uM measured up to 180 mins by LC-ESI-MS/MS analysis
# Type: ADME, cell-based, Hepatocyte
Listing of recorded half-life at 1 µM by entry.
Quick note: give the figure in min, leave out the unit.

# sample.smiles, experimental.value
measured = [
    ("CNC(=O)C(=O)NCCCC/C=C\\CCCCCCCCCc1nnn[nH]1", 182),
    ("CCOc1ccc2ccc(=O)oc2c1", 20.5),
]

Let us move to another entry and its half-life at 1 µM.
What half-life at 1 µM value was documented for this compound, CNC(=O)C(=O)NCCCC/C=C\CCCCCCCCCC(=O)O ?
52.4

###

Listing of recorded inhibition by entry.
# assayed.system: Bifunctional epoxide hydrolase 2 (Homo sapiens) (UniProt P34913)
# Sequence (P34913 whole entry): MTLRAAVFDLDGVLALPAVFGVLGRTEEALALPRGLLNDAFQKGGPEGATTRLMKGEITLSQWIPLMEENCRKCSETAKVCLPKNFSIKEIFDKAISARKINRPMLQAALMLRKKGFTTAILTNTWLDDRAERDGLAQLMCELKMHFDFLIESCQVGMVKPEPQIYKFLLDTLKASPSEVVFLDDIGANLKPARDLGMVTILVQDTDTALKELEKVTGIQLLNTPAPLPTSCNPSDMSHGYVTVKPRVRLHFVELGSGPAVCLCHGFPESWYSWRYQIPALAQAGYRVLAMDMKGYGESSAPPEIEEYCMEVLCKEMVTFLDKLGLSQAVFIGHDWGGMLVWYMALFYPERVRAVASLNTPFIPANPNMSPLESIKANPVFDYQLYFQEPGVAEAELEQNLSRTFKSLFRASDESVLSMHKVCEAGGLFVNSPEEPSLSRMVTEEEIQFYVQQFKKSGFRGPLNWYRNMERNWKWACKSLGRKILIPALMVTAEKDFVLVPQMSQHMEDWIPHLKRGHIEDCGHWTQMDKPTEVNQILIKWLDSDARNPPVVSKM
# condition.notes: Sf21, at 1 µM
# Description: Inhibition of N-terminal His-tagged recombinant human soluble epoxide hydrolase (2 to 555 residues) expressed in Sf21 insect cells at 1 uM using as 14,15-EET as substrate after 10 mins by reversed-phase HPLC assay relative to control
Quick note: give the figure in %, leave out the unit.

# compound, assayed.system, unit.abbreviation, inhibition
measured = [
    ("CNC(=O)C(=O)NCCCC/C=C\\CCCCCCCCCP(=O)([O-])[O-].[Na+].[Na+]", "Bifunctional epoxide hydrolase 2 (Homo sapiens) (UniProt P34913)", "%", 6.8),
    ("CNC(=O)C(=O)NCCCC/C=C\\CCCCCCCCCP(=O)(OC)OCOC(=O)C(C)(C)C (stereo not given)", "Bifunctional epoxide hydrolase 2 (Homo sapiens) (UniProt P34913)", "%", 5.4),
    ("CNC(=O)C(=O)NCCCC/C=C\\CCCCCCCOCC(=O)O", "Bifunctional epoxide hydrolase 2 (Homo sapiens) (UniProt P34913)", "%", 0.8),
    ("CNC(=O)C(=O)NCCCc1ccccc1CCCCCCP(=O)([O-])[O-].[Na+].[Na+]", "Bifunctional epoxide hydrolase 2 (Homo sapiens) (UniProt P34913)", "%", -1),
    ("CNC(=O)C(=O)NCCCC/C=C\\CCCCCCCCCC(=O)N[C@@H](C)C(=O)[O-].[Na+]", "Bifunctional epoxide hydrolase 2 (Homo sapiens) (UniProt P34913)", "%", 1.9),
]

// lookup inhibition | system=Bifunctional epoxide hydrolase 2 (Homo sapiens) (UniProt P34913) | key= CNC(=O)C(=O)NCCCC/C=C\CCCCCCCCCc1nnn[nH]1
-1.3

// lookup inhibition | system=Bifunctional epoxide hydrolase 2 (Homo sapiens) (UniProt P34913) | key= CNC(=O)C(=O)NCCCC/C=C\CCCCCCCCCSc1ccccc1O
0.4

// lookup inhibition | system=Bifunctional epoxide hydrolase 2 (Homo sapiens) (UniProt P34913) | key= CNC(=O)C(=O)NCCCC/C=C\CCCCCCCCCC(=O)O
-4.1

// lookup inhibition | system=Bifunctional epoxide hydrolase 2 (Homo sapiens) (UniProt P34913) | key= CNC(=O)C(=O)NCCCC/C=C\CCCCCCCCCP(=O)(OC)OC
5

// lookup inhibition | system=Bifunctional epoxide hydrolase 2 (Homo sapiens) (UniProt P34913) | key= CNC(=O)C(=O)NCCCC/C=C\CCCCCCCCCS(=O)(=O)[O-].[Na+]
5.2

// lookup inhibition | system=Bifunctional epoxide hydrolase 2 (Homo sapiens) (UniProt P34913) | key= CNC(=O)C(=O)NCCCC/C=C\CCCCCCCOCC(=O)OCCOCCOCCO
1.3

// lookup inhibition | system=Bifunctional epoxide hydrolase 2 (Homo sapiens) (UniProt P34913) | key= CCNC(=O)NCCCC/C=C\CCCCCCCCCC(=O)NCC(=O)[O-].[Na+]
0.9

// lookup inhibition | system=Bifunctional epoxide hydrolase 2 (Homo sapiens) (UniProt P34913) | key= CCNC(=O)NCCCC/C=C\CCCCCCCCCC(=O)OCCOCCOCCO
26.5

// lookup inhibition | system=Bifunctional epoxide hydrolase 2 (Homo sapiens) (UniProt P34913) | key= CNC(=O)C(=O)NCCCCc1ccccc1CCCCCCCCCP(=O)([O-])[O-].[Na+].[Na+]
1.3

// lookup inhibition | system=Bifunctional epoxide hydrolase 2 (Homo sapiens) (UniProt P34913) | key= CNC(=O)C(=O)NCCCC/C=C\CCCCCCCCCC(=O)N(C)CC(=O)[O-].[Na+]
-0.6

###

# assayed.system: Bifunctional epoxide hydrolase 2 (Homo sapiens)
# protocol.summary: Inhibition of N-terminal His-tagged recombinant human soluble epoxide hydrolase (2 to 555 residues) expressed in Sf21 insect cells at 10 uM using as 14,15-EET as substrate after 10 mins by reversed-phase HPLC assay relative to control
Listing of recorded inhibition by entry.
Quick note: give the figure in %, leave out the unit.

Check out these entries, answers already filled in.
# molecule, inhibition / %
data = [
    ("CNC(=O)C(=O)NCCCCc1ccccc1CCCCCCCCCP(=O)([O-])[O-].[Na+].[Na+]", 1.8),
    ("CNC(=O)C(=O)NCCCC/C=C\\CCCCCCCCCP(=O)(OCOC(=O)C(C)(C)C)OCOC(=O)C(C)(C)C", 38.4),
    ("CNC(=O)C(=O)NCCCC/C=C\\CCCCCCCCCc1noc(=O)[nH]1", -9.2),
    ("CCNC(=O)NCCCC/C=C\\CCCCCCCCCC(=O)O", 23.4),
    ("CNC(=O)C(=O)NCCCC/C=C\\CCCCCCCCCSc1ccccc1O", 1.5),
]

What inhibition value was documented for this molecule, CNC(=O)C(=O)NCCCc1ccccc1CCCCCCP(=O)([O-])[O-].[Na+].[Na+] ?
-2.2

What inhibition value was documented for this molecule, CNC(=O)C(=O)NCCCC/C=C\CCCCCCCCCC(=O)NS(=O)(=O)c1ccccc1 ?
1.1

What inhibition value was documented for this molecule, CNC(=O)C(=O)NCCCC/C=C\CCCCCCCCCC(=O)N[C@@H](C)C(=O)[O-].[Na+] ?
18.7

What inhibition value was documented for this molecule, CNC(=O)C(=O)NCCCC/C=C\CCCCCCCCCP(=O)(OC)OCOC(=O)C(C)(C)C (stereo not given) ?
18.6

What inhibition value was documented for this molecule, CNC(=O)C(=O)NCCCC/C=C\CCCCCCCCCC(=O)N(C)CC(=O)[O-].[Na+] ?
17.8

What inhibition value was documented for this molecule, CNC(=O)C(=O)NCCCC/C=C\CCCCCCCCCc1nnn[nH]1 ?
1.9

What inhibition value was documented for this molecule, CNC(=O)C(=O)NCCCC/C=C\CCCCCCCCCC(=O)O ?
-8.3

What inhibition value was documented for this molecule, CNC(=O)C(=O)NCCCC/C=C\CCCCCCCOCC(=O)OCCOCCOCCO ?
1.9
